system: Haemophilus influenzae; experiment: Antibacterial activity against Haemophilus influenzae ATCC 49247 by broth microdilution method; type: functional
Parameter MIC: see the listing below.
Your answer should be a plain number; it is taken to be in µg/mL.

Reference set, count: 2
compound	study-system	MIC / µg/mL
CC[C@H]1OC(=O)[C@H](C)[C@@H](O[C@H]2CC(C)(OC)[C@@H](OCCCOCCCc3ccc4c(c3)c(=O)c(C(=O)O)cn4C(C)(C)C)[C@H](C)O2)[C@H](C)[C@@H](O[C@@H]2O[C@H](C)C[C@H](N(C)C)[C@H]2O)[C@](C)(O)C[C@@H](C)CN(C)[C@H](C)[C@@H](O)[C@]1(C)O (stereo partly drawn)	Haemophilus influenzae	2
CC[C@H]1OC(=O)[C@H](C)[C@@H](O[C@H]2C[C@@](C)(OC)[C@@H](OCCCOCCCc3ccc4c(c3)c(=O)c(C(=O)O)cn4C(C)C)[C@H](C)O2)[C@H](C)[C@@H](O[C@@H]2O[C@H](C)C[C@H](N(C)C)[C@H]2O)[C@](C)(O)C[C@@H](C)CN(C)[C@H](C)[C@@H](O)[C@]1(C)O	Haemophilus influenzae	4

Form field MIC for item CC[C@H]1OC(=O)[C@H](C)[C@@H](O[C@H]2C[C@@](C)(OC)[C@@H](OCCCOCCCCCc3ccc4c(c3)c(=O)c(C(=O)O)cn4N(C)C)[C@H](C)O2)[C@H](C)[C@@H](O[C@@H]2O[C@H](C)C[C@H](N(C)C)[C@H]2O)[C@](C)(O)C[C@@H](C)CN(C)[C@H](C)[C@@H](O)[C@]1(C)O on Haemophilus influenzae: 1

Form field MIC for item CC[C@H]1OC(=O)[C@H](C)[C@@H](O[C@H]2C[C@@](C)(OC)[C@@H](OCCCOCCCCc3ccc4c(c3)c(=O)c(C(=O)O)cn4N(C)C)[C@H](C)O2)[C@H](C)[C@@H](O[C@@H]2O[C@H](C)C[C@H](N(C)C)[C@H]2O)[C@](C)(O)C[C@@H](C)CN(C)[C@H](C)[C@@H](O)[C@]1(C)O on Haemophilus influenzae: 4

Form field MIC for item CC[C@H]1OC(=O)[C@H](C)[C@@H](O[C@H]2C[C@@](C)(OC)[C@@H](OCCCOCCCc3ccc4c(c3)c(=O)c(C(=O)O)cn4CC)[C@H](C)O2)[C@H](C)[C@@H](O[C@@H]2O[C@H](C)C[C@H](N(C)C)[C@H]2O)[C@](C)(O)C[C@@H](C)CN(C)[C@H](C)[C@@H](O)[C@]1(C)O on Haemophilus influenzae: 1

Form field MIC for item CC[C@H]1OC(=O)[C@H](C)[C@@H](O[C@H]2C[C@@](C)(OC)[C@@H](OCCCOCCCc3ccc4c(c3)c(=O)c(C(=O)O)cn4CCOC)[C@H](C)O2)[C@H](C)[C@@H](O[C@@H]2O[C@H](C)C[C@H](N(C)C)[C@H]2O)[C@](C)(O)C[C@@H](C)CN(C)[C@H](C)[C@@H](O)[C@]1(C)O on Haemophilus influenzae: 2

Form field MIC for item CCCCn1cc(C(=O)O)c(=O)c2cc(CCCOCCCO[C@H]3[C@H](C)O[C@@H](O[C@H]4[C@H](C)[C@@H](O[C@@H]5O[C@H](C)C[C@H](N(C)C)[C@H]5O)[C@](C)(O)C[C@@H](C)CN(C)[C@H](C)[C@@H](O)[C@](C)(O)[C@@H](CC)OC(=O)[C@@H]4C)C[C@@]3(C)OC)ccc21 on Haemophilus influenzae: 1

Form field MIC for item CC[C@H]1OC(=O)[C@H](C)[C@@H](O[C@H]2C[C@@](C)(OC)[C@@H](OCCCOCCCc3ccc4c(c3)c(=O)c(C(=O)O)cn4C3CC3)[C@H](C)O2)[C@H](C)[C@@H](O[C@@H]2O[C@H](C)C[C@H](N(C)C)[C@H]2O)[C@](C)(O)C[C@@H](C)CN(C)[C@H](C)[C@@H](O)[C@]1(C)O on Haemophilus influenzae: 2

Form field MIC for item CC[C@H]1OC(=O)[C@H](C)[C@@H](O[C@H]2C[C@@](C)(OC)[C@@H](OCCCOCCCc3ccc4c(c3)c(=O)c(C(=O)O)cn4CCN(C)C)[C@H](C)O2)[C@H](C)[C@@H](O[C@@H]2O[C@H](C)C[C@H](N(C)C)[C@H]2O)[C@](C)(O)C[C@@H](C)CN(C)[C@H](C)[C@@H](O)[C@]1(C)O on Haemophilus influenzae: 4

Form field MIC for item CC[C@H]1OC(=O)[C@H](C)[C@@H](O[C@H]2C[C@@](C)(OC)[C@@H](OCCCOCCCc3cc4c5c(c3)c(=O)c(C(=O)O)cn5C(C)(C)CO4)[C@H](C)O2)[C@H](C)[C@@H](O[C@@H]2O[C@H](C)C[C@H](N(C)C)[C@H]2O)[C@](C)(O)C[C@@H](C)CN(C)[C@H](C)[C@@H](O)[C@]1(C)O on Haemophilus influenzae: 2

Form field MIC for item CC[C@H]1OC(=O)[C@H](C)C(=O)[C@H](C)[C@@H](O[C@@H]2O[C@H](C)C[C@H](N(C)C)[C@H]2O)[C@](C)(OC)C[C@@H](C)C(=O)[C@H](C)[C@H]2N(CCCCn3cnc(-c4cccnc4)c3)C(=O)O[C@]12C [TELITHROMYCIN] on Haemophilus influenzae: 1

Form field MIC for item CC[C@H]1OC(=O)[C@H](C)[C@@H](O[C@H]2C[C@@](C)(OC)[C@@H](O)[C@H](C)O2)[C@H](C)[C@@H](O[C@@H]2O[C@H](C)C[C@H](N(C)C)[C@H]2O)[C@](C)(O)C[C@@H](C)CN(C)[C@H](C)[C@@H](O)[C@]1(C)O [AZITHROMYCIN] on Haemophilus influenzae: 1

Form field MIC for item CC[C@H]1OC(=O)[C@H](C)[C@@H](O[C@H]2C[C@@](C)(OC)[C@@H](OCCCOCCCCc3cc4c5c(c3)c(=O)c(C(=O)O)cn5C(C)(C)CO4)[C@H](C)O2)[C@H](C)[C@@H](O[C@@H]2O[C@H](C)C[C@H](N(C)C)[C@H]2O)[C@](C)(O)C[C@@H](C)CN(C)[C@H](C)[C@@H](O)[C@]1(C)O on Haemophilus influenzae: 1
